Experiment: Half-life in 4:6 acetone/ 1.0 M HEPES buffer, pH 7.4, 37 degree celsius
Assay type: ADME
Measured half-life accompanies every entry in the list below.
Report the value in h with no unit label.

Please review the following examples before continuing.
Cc1ccc([C@@H]2C[C@@H](OO)N[P@](=O)(N(CCCl)CCCl)O2)cc1: 4
O=[N+]([O-])c1ccc([C@@H]2C[C@@H](OO)N[P@](=O)(N(CCCl)CCCl)O2)cc1: 3.17
O=[P@]1(N(CCCl)CCCl)N[C@H](OO)C[C@@H](c2ccncc2)O1: 1.83

We next turn to a different compound, shown below.
Ask | Param item = O=[P@@]1(N(CCCl)CCCl)N[C@H](OO)C[C@@H](c2ccccc2)O1 ; retrieve measured half-life.
Reply | 1.53
